Data origin, for the record: ChEMBL document CHEMBL3351944

# Tested on: MDCK
# Procedure text: Apparent permeability from basolateral side to apical in MDCK cells expressing MDR1 at 10 uM after 60 mins by LC/MS analysis
# Type: ADME, cell-based, Canis lupus familiaris
# Measurement parameters: dog, 1 h
Could you mark each record yes (1) if its permeability falls strictly under 7%, and no (0) if it equals or exceeds it?

# example entries with known answers
COC(=O)[C@@H]1C[C@H](OC(C)=O)C(=O)[C@H]2[C@@]1(C)CC[C@H]1C(=O)O[C@H](c3ccoc3)C[C@]21C : no (0)
COc1cc2nc(N3CCN(C(=O)c4ccco4)CC3)nc(N)c2cc1OC : yes (1)
COC(=O)[C@@H]1C[C@H](OC(C)=O)C(=O)[C@H]2[C@@]1(C)CC[C@H]1C(=O)O[C@H](CC3=CC(=O)C(OC)=C(OC)C3=O)C[C@]21C : yes (1)
Cn1c(=O)c2c(ncn2C)n(C)c1=O : no (0)

Next up:
Q) permeability strictly < 7% for this compound? COC(=O)[C@@H]1C[C@H](OC(C)=O)C(=O)[C@H]2[C@@]1(C)CC[C@H]1C(=O)O[C@H](CC3=CC(=O)C(OC)=CC3=O)C[C@]21C
A) no (0)
